// data source = paper PMC10605077

Reported CC50 at 48 h values follow for various compounds
experiment: MTT cytotoxicity assay; type: cell-based; details: human; TZM-bl cells, MTT, 48 h

Compound	Reading Unit	CC50 at 48 h
C[N+](C)(C)CCc1cc(Cl)c(O)c(Cl)c1 [YDC-3M]	µM	39.9
COc1c(Br)cc(CC[N+](C)(C)C)cc1Br [YODB-3M]	µM	78.7

----------
test system: HIV-1IIIB (X4); test: Anti-HIV activity in infected TZM-bl cells (luciferase), pre- and post-infection treatment; format: cell-based, Human Immunodeficiency Virus Type 1 (HIV-1); conditions: Human immunodeficiency virus 1, TZM-bl, 75 µM, TZM-bl cells; read-out: Percentage inhibition of HIV-1IIIB (X4 strain) replication
Reported inhibition at 75 µM values follow for various compounds
Property Label: inhibition at 75 µM (%)

Compound	Property Label	Observed
COc1c(Cl)cc(C[C@@H](C(=O)O)N(C)C)cc1Cl [TODC-2M]	inhibition at 75 µM	62.8
COc1c(Cl)cc(CC[N+](C)(C)C)cc1Cl [YODC-3M]	inhibition at 75 µM	-8.6
C[N+](C)(C)CCc1cc(Cl)c(O)c(Cl)c1 [YDC-3M]	inhibition at 75 µM	31.2
C[N+](C)(C)CCc1cc(Br)c(O)c(Br)c1 [YDB-3M]	inhibition at 75 µM	-19.4
C[N+](C)(C)[C@@H](Cc1cc(Br)c(O)c(Br)c1)C(=O)O [TDB-3M]	inhibition at 75 µM	-15.7
CN(C)[C@@H](Cc1cc(Cl)c(O)c(Cl)c1)C(=O)O [TDC-2M]	inhibition at 75 µM	-39.5
COc1c(Br)cc(C[C@@H](C(=O)O)[N+](C)(C)C)cc1Br [TODB-3M]	inhibition at 75 µM	3.2
C[N+](C)(C)[C@@H](Cc1cc(Cl)c(O)c(Cl)c1)C(=O)O [TDC-3M]	inhibition at 75 µM	8.1
COc1c(Br)cc(C[C@@H](C(=O)O)N(C)C)cc1Br [TODB-2M]	inhibition at 75 µM	9.9
COc1c(Cl)cc(C[C@@H](C(=O)O)[N+](C)(C)C)cc1Cl [TODC-3M]	inhibition at 75 µM	26.7
CN(C)[C@@H](Cc1cc(Br)c(O)c(Br)c1)C(=O)O [TDB-2M]	inhibition at 75 µM	-2.9
COc1c(Br)cc(CC[N+](C)(C)C)cc1Br [YODB-3M]	inhibition at 75 µM	20.3
